- System: HL-60(TB) leukemia
- method: NCI-60 one-dose screen, 48 h (100 = growth as untreated, 0 = no growth, -100 = all killed)
- conditions: 10 µM unless noted
Compounds without any hit were thinned out: in the full panel of roughly 83,000, 20% have a hit.
growth values, listed per item
measure_name: growth (%)

[[record]]
molecule = "O=C(CCCCCCN1CC(=O)N2[C@H](c3cc(Br)cs3)c3[nH]c4ccccc4c3C[C@H]2C1=O)NO"
value_observed = 4.98

[[record]]
molecule = "CCOP(=O)(OCC)c1nc(-c2ccccc2)oc1NCc1cccnc1"
value_observed = 102

[[record]]
molecule = "CC(=O)N1c2ccccc2NC2=C(C(=O)N(C)C2(C)C)C1C (stereo unspecified)"
value_observed = 7.5

[[record]]
molecule = "NS(=O)(=O)c1ccc(CCN2C(=O)C=CC2=O)cc1"
value_observed = 99.6

[[record]]
molecule = "O=S(=O)(Nc1ccc(Cl)cc1Cl)c1ccc(-c2cnc(C3CC3)o2)cc1"
value_observed = -0.119

[[record]]
molecule = "COc1ccc(OC)c(/C=C2\\COc3ccc(O)cc3C2=O)c1"
value_observed = 82.2

[[record]]
molecule = "Cc1cc(C(C)(C)C)ccc1S"
value_observed = 111

[[record]]
molecule = "CC(CN(C)C)CN1c2ccccc2CCc2ccccc21 (stereo unspecified)"
value_observed = 108

[[record]]
molecule = "Cn1cnc([N+](=O)[O-])c1Sc1ncn[nH]1"
value_observed = 105

[[record]]
molecule = "O=C1C(=O)c2ccccc2C(O)=C1CCCc1ccc(C2CCCCCC2)cc1"
value_observed = 45.6

[[record]]
molecule = "N#CCCn1cnc2c(N)ncnc21"
value_observed = 98.6

